target: T1, extracellular domain of human TF protein (human, UniProt P13726 34-251); experiment: ELISA, coated TF extracellular domain
T1 construct: range 34-251; Limits 34-251 are stated for the immunogen; also called the extracellular domain protein of TF; TF antigen
experimental-readout: EC50

Field: example entries. Status: answers known.
TF-mAb-H36 (antibody, V domains shown, Humanized) VH: EVQLVQSGAEVKKPGESLKISCKGSGYSFTSYWMNWVKQMPGKGLEWMGMIYPADSETRLNQKFKDKATLSVDKSISTAYLQWSSLKASDTAMYYCAREDYGSSDYWGQGTTVTVSS VL: EIVLTQSPATLSLSPGERATLSCSASSSVSYMNWYQQKPGQSPRIWIYGISNLASGVPARFSGSGSGTDFTLTISSLEPEDFAVYYCQQKSSFPWTFGGGTKVEIK: 0.0234 nM
TF-mAb-Ch (antibody, V domains shown, Variable regions of TF-mAb-SC1 cloned into vectors with human IgG1 heavy chain constant region and human kappa constant region; also called human-mouse chimeric antibody; chimeric antibody TF-mAb-Ch) VH: QVQLQQPGAELVRPGASVKLSCKASGYSFISYWMNWVKQRPGQGLEWIGMIYPADSETRLNQKFKDKATLTVDKSSSTAYMQLSSPTSEDSAVYYCAREDYGSSDYWGQGTTLTVSS VL: EILLTQSPAIIAASPGEKVTITCSASSSVSYMNWYLQKPGSSPKIWIYGISNLASGVPARFSGSGSGTSFSFTINSMETEDVATYYCQQKSSFPWTFGGGTKLEIK: 0.01 nM

Returns the measured EC50 for the input binder. Input: TF-mAb-H46 (antibody, V domains shown, Humanized) VH: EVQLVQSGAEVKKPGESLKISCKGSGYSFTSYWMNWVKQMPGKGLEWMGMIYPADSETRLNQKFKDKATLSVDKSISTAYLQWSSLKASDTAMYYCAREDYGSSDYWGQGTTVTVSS VL: EIVLTQSPDFQSVTPKEKVTITCSASSSVSYMNWYQQKPDQSPKIWIYGISNLASGVPSRFSGSGSGTDFTLTINSLEAEDAATYYCQQKSSFPWTFGGGTKVEIK
0.0119 nM
